# Lookup of reported EC50 keyed by entry
target: UniProtKB Q92753; test: Inverse agonist activity at GAL4-fused human RORb expressed in HEK293T cells assessed as suppression of basal transcriptional activity after 20 hrs by dual-glo luciferase reporter gene assay
Sequence (Q92753 whole entry, the tested form may be a part): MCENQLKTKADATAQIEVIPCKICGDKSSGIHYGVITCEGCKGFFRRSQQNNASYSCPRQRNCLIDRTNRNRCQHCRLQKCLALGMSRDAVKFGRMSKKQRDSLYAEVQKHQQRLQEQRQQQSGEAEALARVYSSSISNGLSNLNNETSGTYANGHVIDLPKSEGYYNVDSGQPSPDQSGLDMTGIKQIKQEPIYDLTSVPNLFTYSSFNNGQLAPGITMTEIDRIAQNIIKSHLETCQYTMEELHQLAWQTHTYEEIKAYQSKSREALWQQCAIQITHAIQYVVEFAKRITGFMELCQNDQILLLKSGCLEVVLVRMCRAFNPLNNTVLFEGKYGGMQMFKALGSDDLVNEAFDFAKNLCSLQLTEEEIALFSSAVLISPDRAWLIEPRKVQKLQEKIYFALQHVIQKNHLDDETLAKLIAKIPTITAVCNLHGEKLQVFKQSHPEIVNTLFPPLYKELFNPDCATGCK
measurement-type: EC50

given-smiles | value-measured
O=C(O)c1ccc(-c2nc(C(=O)c3c(Cl)cccc3C3CC3)n3cccnc23)cc1O | > 10 µM
O=C(O)c1ccc(-c2nc(C(=O)c3c(Cl)cccc3C(F)(F)F)n3ccccc23)cc1O | > 10 µM
O=C(O)c1ccc(-c2nc(C(=O)c3c(Cl)cccc3C(F)(F)F)n3ccccc23)cc1 | > 10 µM
O=C(O)c1ccc(-c2nc(C(=O)c3c(Cl)cccc3C(F)(F)F)n3c2CCCC3)c(F)c1 | > 10 µM
O=C(O)c1ccc(-c2nc(C(=O)c3c(Cl)cccc3C(F)(F)F)n3ccccc23)c(F)c1 | > 10 µM
O=C(O)c1ccc(-c2nc(C(=O)c3c(Cl)cccc3C3CC3)n3c2CCCC3)c(F)c1 | > 10 µM
